These entries and their values trace back to the supplement of paper PMC9170038.

# Tested on: MS2 coat protein
# Assay comment: apparent KD of MS2 coat protein; designed switch direction (-1 OFF switch, 1 ON switch): -1; higher = weaker reporter binding
# Measurement parameters: input ligand: none
# apparent KD of MS2 coat protein annotations
Write down the numeric answer in nM and omit the unit.

| Sequence entry | Result number |
| --- | --- |
| GGAUAAAAGACAGGAUAUACGCACCACUAACGAGUAGAAGGGUCACAUGAGGAUCACCCAUGUGAGUUCUCAAUAAGAAACACG [Prohibition 67 - Jieux - Exclusion NG 1] (Eterna round: R96, puzzle: Exclusion NG 1) | 17.3 |

Consider the additional sequence presented here.
What does the data say about its apparent KD of MS2 coat protein? Entry: GUCGCAAUGCAGGAUAUCCUGCUAUUCAAGGGAGGAGAAGGGCAGACAUGAGGAUCACCCAUGUGGUCCGUGCC [Eternabot (L1) Solution 3] (Eterna round: R97, puzzle: Exclusion 6)
170

====

# Test system: MS2 coat protein
# Assay comment: apparent KD of MS2 coat protein; higher = weaker reporter binding
# Measurement parameters: Eterna round: R107; input ligand: none
Given measured apparent KD of MS2 coat protein, output 1 (yes) if it is greater than or equal to 0.02 µM and 0 (no) if not.

| Sequence entry | Class |
| --- | --- |
| UUAAUCAAUAUAGAAAACUAUAUUGCAGAAGGAGCGUGAUAAAACACAGGUAGGUCGCUGAAGGGAACAUGAGGAUCACCCAUGU [AstrosSSArgA#5] | 1 (yes) |
| ACAUGAGGAUCACCCAUGUAAAUAACGGAAGGAGCGUGCAAAAGCACAGGUAGGUCGCCGAUAUAAAUAUUGGGUAAUAUAUUAU [ExyArgA#1] | 1 (yes) |
| UUUUUUAACUGAAGGAGCGUCACAUGAGGAUCACCCAUGUAUUAGAUGAGAAUGAUCUUGUGGCAGGUAGGUCGCAGAGGAAGGG [#30 Exclusion - Arginine B] | 1 (yes) |
| GCAUCCUAGUCGGCCGCCACUGGGUGUACCCAGUGCUGGUACAAACAUGAGGAUCACCCAUGUACCAGGACCGGGACUAGGAUGC [(Trp1)-(MT2)''-(T1)'-(MT2)'-(Ms2)-(Trp2)_Design4] | 0 (no) |

Okay, now this sequence:
Hello, I need to know if GCAUCCUAGUCGGCCGCCACUGCAACAUGAGGAUCACCCAUGUACUGCACAUGGGAAUGCAGUAGCAGGACCGGGACUAGGAUGC [(T1)-(M1)-(M2)-(T)''-(M)'-(T)'-(T2)_Design2_2/18/17] has measured apparent KD of MS2 coat protein not below 0.02 µM. Thanks!
1 (yes)

====

# Test system: MS2 coat protein
# Assay comment: apparent KD of MS2 coat protein; designed switch direction (-1 OFF switch, 1 ON switch): -1; higher = weaker reporter binding
# Measurement parameters: input ligand: FMN 200 uM
Given measured apparent KD of MS2 coat protein, output y if it is greater than or equal to 30 nM and n if not.

| Sequence entry | Class |
| --- | --- |
| CUUUGCACGCUGCGGUCCUACAUGAGGAUCACCCAUGUGGUCUGGUGGCGUGGGUCGCCGGACUUGGCUCGUCUUGG [salish99_S_TOV1_R5_042] (Eterna round: R97, puzzle: Sensor, turn-off variant 1) | n |
| GUACUGACAGGAUAUACAUGAGGAUCACCCAUGUCCUUAAGCUGACAAAAGUCAGCAAGUAGAAGGGUCUGUAC [Omei Ex3 Model Bachelor's Dilema v1] (Eterna round: R97, puzzle: Exclusion 3) | y |
| CAGGGCGCAGGAUAUAUCACAAUGCACAUGAGGAUCACCCAUGUCAUCCUCGCGCUUGAGAUAGAAGGGUGAAACC [Eternabot (L1) Solution 65] (Eterna round: R97, puzzle: Exclusion 5) | n |
| CUAUCUUGCAAGGAUAUGCAAUUUAUUAUUUAUGCAGAAGGUGCUACAUGAGGAUCACCCAUGUUUCUGGGUUU [JR_E6_Sub046] (Eterna round: R96, puzzle: Exclusion 6) | y |
| GCAAGCUUAAUCAGUAUGAACAUGAGGAUCACCCAUGUAUAAGGUAAUCCUUUUGGGCCCUUUAUUACUCGUCUUAU [JR_STOV1_Sub028] (Eterna round: R97, puzzle: Sensor, turn-off variant 1) | y |
| UGAUUCCUAGGAUAUGCUGGAUAUGAGGUCCCGAGUUGCCGACAUGAGGAUCACCCAUGUAGAAGGAGGUGUCG [Eternabot (L1) Solution 66] (Eterna round: R97, puzzle: Exclusion 2) | y |
| UCCUCACAUGAGGAUCACCCAUGUCAGGAUAUAAGAAACGCGGCAGGCAGCCGCAAAAUUAGAAGGGACAUUAA [EX1 A.27] (Eterna round: R97, puzzle: Exclusion 1) | y |
| GAAAAUCGUAAGGAUAUCAGCGAAGAAGUACACUGAGAAGGUAUGACAUGAGGAUCACCCAUGUAGCCCGCUUA [Eternabot (L1) Solution 38] (Eterna round: R97, puzzle: Exclusion 6) | n |

Hello, I need to know if GAGUCUCGAAAGGAUAUUUAGGUGUAUGCAGGUAGAGAAGGUUCGACAUGAGGAUCACCCAUGUAAUGGUUUCC [Eternabot (L2) Solution 25] (Eterna round: R97, puzzle: Exclusion 6) has measured apparent KD of MS2 coat protein not below 30 nM. Thanks!
y

Moving on to UUUUGCUCAGGAUAUACAUGAGGAUCACCCAUGUAUAUUGAAAAUAAUACAUGGGAAUGUAGAAGGGAGCUCAU [Omei Ex3 Pseudoloop 20] (Eterna round: R97, puzzle: Exclusion 3)
y

Moving on to UACAAGCUUUUAAGAUCCUACAUGAGGAUCACCCAUGUGCUCGUCUUAUAACGUACUGUGACGAAAGUCACGGUACG [JL TOV1 3.21] (Eterna round: R97, puzzle: Sensor, turn-off variant 1)
y

Moving on to AGAGUGCUGCGAGGAUAUACAUGAGGAUCACCCAUGUUUUCGUGUGAGGCUUUGCCUCACACGAAGUAGAAGGCGCAGUACUCU [Mat - Exclusion NG 2 - Mod of JL - D31] (Eterna round: R96, puzzle: Exclusion NG 2)
n

Moving on to UUAGUUGGAGGAUAUACGCCGUUUGACAUGAGGAUCACCCAUGUAGAGGCUUAUGUCAAUGUAGAAGGCCGUUUGG [Eternabot (L2) Solution 12] (Eterna round: R97, puzzle: Exclusion 5)
n

Moving on to CCCAGUUAUUGAGGAUAUCGUACAUGAGGAUCACCCAUGUAAUAAAUGAGGAUUUCGGGUGUCUACGAGAAGGCAAGGAUAGGC [Ostracism 21 - Jieux - Exclusion NG 2] (Eterna round: R96, puzzle: Exclusion NG 2)
y

====

# Tested on: K4 kissing-loop RNA reporter;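 note: bound reporter read as fluorescence of individual clusters on recovered sequencing chips by microscopy, with normalized cluster intensities fitted with a binding model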
# Assay comment: apparent KD of K4 kissing-loop reporter; higher = weaker reporter binding
# Measurement parameters: Eterna round: R107; input ligand: tryptophan 2.4 mM
# apparent KD of K4 kissing-loop reporter annotations
Write down the numeric answer in nM and omit the unit.

Example results:
| Sequence entry | Readout units | apparent KD of K4 kissing-loop reporter |
| --- | --- | --- |
| AAGGCCACGAGAAGGAGCGUGCUAUGGAGUGAUGUUCCAGUGUAGACCUAAGGUCUACACGCACAGGUAGGUCGCUCGUGGUCAA [Omei KL Arginine B SS A v1] | nM | 186 |
| UGGAGUUGACGAAAAGUCAACUCCUGAGAAGGAGCGGACGAAAGUCCAGGUAGGUCGCUCACUAGCAGUGAUGUUGCUACAUAAA [#OpenEnded 2] | nM | 208 |

Consider the additional sequence presented here.
What does the data say about its apparent KD of K4 kissing-loop reporter? Entry: ACACGGAGAGGCAUAACGUGCAUCUUCAGCGAGGAUAUCCAUUACAGGAGAAGGCGCUCCGGAGUGAUGUUCCGGCAAAAGAUAC [Quatatte]
91.5

====

# Test system: MS2 coat protein
# Assay comment: apparent KD of MS2 coat protein; designed switch direction (-1 OFF switch, 1 ON switch): 1; higher = weaker reporter binding
# Measurement parameters: Eterna round: R95; input ligand: microRNA oligo, concentration not stated
Reported metric: apparent KD of MS2 coat protein (nM)
Write down the numeric answer in nM and omit the unit.

Example results:
| Sequence entry | apparent KD of MS2 coat protein, nM |
| --- | --- |
| UAGAAACAUGAGGAUCACCCAUGUGUCAAAGACAUAGGAUAUCGUAACCGGCGCCGAAUACGAGAAGGGUGGUAAA [Arares] (puzzle: Same State 1) | 74.9 |
| GAUUCACAUGAGGAUCACCCAUGUCGUAAUAUGGGAGGAUAUACGUGGACCGUAGUCCGCGUAGAAGGCCUAAUUG [Mat - Same State 1 - Mod of JL - D25] (puzzle: Same State 1) | 148 |

What does the data say about its apparent KD of MS2 coat protein? Entry: UCUUGGUUUUUGCUCGUUUUUUGUGUUGAACAUGAGGAUCACCCAUGUAUUGUACAGUCCGGUUUAGUGAUGGUCCG [JMF 58] (puzzle: Sensor for hsa-mir-208a)
32.6

Moving on to AUAAAACAUGAGGAUCACCCAUGUCAACAAAGUCGAGGAUAUGGGCAUAUAAAAUAAGAACCAGAAGGCGAAUAAU [salish99_ss1_r3_026] (puzzle: Same State 1)
265

Moving on to AGUCCAGCCAAAGCUGGACAAAAGCAUGUACAUGAGGAUCACCCAUGUUCAUGUACAAGCUUUUUGCAAGUCAAAAG [Mat - hsa-mir-208a - Mod of JL - 77] (puzzle: Sensor for hsa-mir-208a)
29.5
